Biological target: T1, human glycophorin A on human red blood cells or red blood cell membranes (human, UniProt P02724 20-150)
T1 construct: whole, on cells; also called hRBC; human RBC membranes
T1 sequence (looked up): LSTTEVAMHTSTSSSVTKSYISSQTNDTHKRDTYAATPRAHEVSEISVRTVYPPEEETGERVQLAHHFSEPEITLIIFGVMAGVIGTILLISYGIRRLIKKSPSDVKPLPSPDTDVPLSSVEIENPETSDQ
Test: Fab on intact human RBC, unbound Fab by ELISA; 0 min after 200-fold dilution
percentage of input antibody bound: recorded values
outcome.measure: percentage of input antibody bound

INSERT INTO measurements (binder, reported_measurement) VALUES
  ('TPP-7793, affinity matured 6C12 Fab (Fab, V domains shown, Tested as Fab) VH: EVQLVQSGAEVKKPGASVKVSCKASGYTFTRYTIHWVRQAPGQGLEWMGYINPSSGYTRYNPKFKGRVTMTRDKSTSTAYMELRSLRSDDTAVYYCWTGTRDYWGQGTTVTVSS VL: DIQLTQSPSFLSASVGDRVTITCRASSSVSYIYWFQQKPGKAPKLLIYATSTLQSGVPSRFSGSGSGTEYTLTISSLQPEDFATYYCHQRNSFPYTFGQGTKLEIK', '96%'),
  ('TPP-5906, humanized and germlined 6C12 Fab; VL: (S24R, A26S, S49A, P54Q, F95Y); VH: (I48M, D56G, D66G, L70M, T72R) (Fab, V domains shown, The text says that a 6xHIS tag is present on the Fabs in the peptide ELISA; it is not in the printed chains) VH: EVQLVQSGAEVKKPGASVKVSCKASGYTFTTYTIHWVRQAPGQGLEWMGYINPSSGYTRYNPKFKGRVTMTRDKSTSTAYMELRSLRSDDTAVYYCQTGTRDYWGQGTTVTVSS VL: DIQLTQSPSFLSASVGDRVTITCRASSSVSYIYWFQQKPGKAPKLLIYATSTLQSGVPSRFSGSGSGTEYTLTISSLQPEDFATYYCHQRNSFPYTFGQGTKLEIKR', '82%');

Recorded values, source patent US20190359687A1.
